Origin of the recorded values: paper PMC7050772

Listed below: IC50 values for each entry.
# subject-of-test: cytochrome P450 1A1 (CYP1A1) (Homo sapiens)
# Sequence (P04798 whole entry): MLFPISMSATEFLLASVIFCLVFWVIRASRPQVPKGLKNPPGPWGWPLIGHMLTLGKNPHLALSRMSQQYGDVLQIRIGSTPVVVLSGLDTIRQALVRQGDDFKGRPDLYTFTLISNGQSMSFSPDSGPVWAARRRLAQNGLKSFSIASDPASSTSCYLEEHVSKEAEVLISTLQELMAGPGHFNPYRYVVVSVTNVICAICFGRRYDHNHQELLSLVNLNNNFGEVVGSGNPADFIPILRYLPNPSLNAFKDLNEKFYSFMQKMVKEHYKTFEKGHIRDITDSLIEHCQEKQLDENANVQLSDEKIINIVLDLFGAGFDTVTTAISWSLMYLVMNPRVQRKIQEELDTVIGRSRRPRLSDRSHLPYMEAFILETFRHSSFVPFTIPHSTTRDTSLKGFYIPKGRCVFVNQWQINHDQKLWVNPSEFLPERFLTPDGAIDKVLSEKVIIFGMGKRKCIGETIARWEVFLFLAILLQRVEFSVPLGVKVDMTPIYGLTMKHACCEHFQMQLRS
# measurement-description: P450-Glo Luc-CEE luminescence assay with recombinant CYP1A1 microsomes
# Format: biochemical
Respond with a number, then the unit of measure.

What measured IC50 goes with NCCc1c[nH]c2ccccc12 ?
1400 nM

Next: O=c1cc(-c2ccccc2)oc2c1ccc1ccccc12 [α-NF, α-naphthoflavone, reference compound]
760 nM

----------
# subject-of-test: cytochrome P450 1A1 (CYP1A1) (Homo sapiens)
# measurement-description: P450-Glo Luc-CEE luminescence assay with recombinant CYP1A1 microsomes
# Type: biochemical
reported-endpoint: pIC50
In simple prose, pIC50 is minus the logarithm base ten of a concentration in moles per litre.

Report pIC50 for NCCc1c[nH]c2ccc(O)cc12 tested on cytochrome P450 1A1 (CYP1A1) (Homo sapiens).
5.79
